- measured target: 5-hydroxytryptamine receptor 7 (Homo sapiens)
- Sequence (P34969 whole entry): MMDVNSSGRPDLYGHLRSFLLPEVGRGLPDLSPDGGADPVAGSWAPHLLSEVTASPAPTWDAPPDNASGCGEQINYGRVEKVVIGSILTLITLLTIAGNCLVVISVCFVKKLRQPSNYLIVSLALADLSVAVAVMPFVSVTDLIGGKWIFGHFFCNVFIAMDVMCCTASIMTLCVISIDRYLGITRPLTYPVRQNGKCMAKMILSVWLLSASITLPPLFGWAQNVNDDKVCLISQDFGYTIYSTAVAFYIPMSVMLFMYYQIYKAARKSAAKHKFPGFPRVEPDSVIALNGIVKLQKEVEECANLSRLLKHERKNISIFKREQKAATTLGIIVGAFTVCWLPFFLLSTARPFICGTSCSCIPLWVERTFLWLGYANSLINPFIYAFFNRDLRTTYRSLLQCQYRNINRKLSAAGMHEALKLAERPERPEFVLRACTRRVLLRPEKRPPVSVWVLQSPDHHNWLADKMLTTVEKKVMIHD
- measurement notes: Binding affinity to human recombinant 5-HT7 receptor by radioligand displacement assay
Note to self: use Satisfied only for Ki readings below 0.06 µM; a reading exactly at 0.06 µM still gets Not satisfied.

Please let me know if Cc1ccc2c(N3CCN(CCc4cccc(NC(=O)c5ccccc5)c4)CC3)cccc2n1 shows Ki below 0.06 µM. Not satisfied

Please let me know if CC(=O)Nc1cccc(CCN2CCN(c3cccc4nc(C)ccc34)CC2)c1 shows Ki below 0.06 µM. Not satisfied

Please let me know if COC(=O)Nc1cccc(CCN2CCN(c3cccc4nc(C)ccc34)CC2)c1 shows Ki below 0.06 µM. Satisfied

Please let me know if Cc1ccc2c(N3CCN(CCc4cccc(-n5cccn5)c4)CC3)cccc2n1 shows Ki below 0.06 µM. Not satisfied

Please let me know if CCNC(=O)Nc1cccc(CCN2CCN(c3cccc4nc(C)ccc34)CC2)c1 shows Ki below 0.06 µM. Satisfied

Please let me know if Cc1ccc2c(N3CCN(CCc4cccc(N5CCOC5=O)c4)CC3)cccc2n1 shows Ki below 0.06 µM. Not satisfied

Please let me know if Cc1ccc2c(N3CCN(CCc4cccc(NC(=O)c5cnccn5)c4)CC3)cccc2n1 shows Ki below 0.06 µM. Not satisfied

Please let me know if Cc1ccc2c(N3CCN(CCc4cccc(NS(C)(=O)=O)c4)CC3)cccc2n1 shows Ki below 0.06 µM. Not satisfied

Please let me know if Cc1ccc2c(N3CCN(CCc4cccc(NC(=O)Nc5ccccc5)c4)CC3)cccc2n1 shows Ki below 0.06 µM. Not satisfied

====

- measured target: D(2) dopamine receptor (Homo sapiens)
- Sequence (P14416 whole entry): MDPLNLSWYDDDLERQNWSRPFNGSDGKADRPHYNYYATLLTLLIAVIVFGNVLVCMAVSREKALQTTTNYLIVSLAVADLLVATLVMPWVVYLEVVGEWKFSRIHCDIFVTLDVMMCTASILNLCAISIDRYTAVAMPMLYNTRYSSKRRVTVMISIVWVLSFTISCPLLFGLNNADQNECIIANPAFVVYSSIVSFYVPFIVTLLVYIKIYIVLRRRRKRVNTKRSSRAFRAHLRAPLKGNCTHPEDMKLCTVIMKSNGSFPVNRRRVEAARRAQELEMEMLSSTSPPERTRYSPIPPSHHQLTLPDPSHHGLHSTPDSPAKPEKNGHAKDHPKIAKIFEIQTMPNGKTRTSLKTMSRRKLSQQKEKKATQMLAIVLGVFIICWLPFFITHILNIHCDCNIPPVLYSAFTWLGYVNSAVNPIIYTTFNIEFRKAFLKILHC
- measurement notes: Binding affinity to human recombinant dopamine D2 receptor by radioligand displacement assay
Note to self: use Fulfilled only for Ki readings below 400 nM; a reading exactly at 400 nM still gets Not fulfilled.

Please let me know if Cc1ccc2c(N3CCN(CCc4cccc(NC(=O)Nc5ccccc5)c4)CC3)cccc2n1 shows Ki below 400 nM. Fulfilled

Please let me know if COC(=O)Nc1cccc(CCN2CCN(c3cccc4nc(C)ccc34)CC2)c1 shows Ki below 400 nM. Fulfilled

Please let me know if Cc1ccc2c(N3CCN(CCc4cccc(NC(=O)c5cnccn5)c4)CC3)cccc2n1 shows Ki below 400 nM. Fulfilled

Please let me know if Cc1ccc2c(N3CCN(CCc4cccc(N5CCOC5=O)c4)CC3)cccc2n1 shows Ki below 400 nM. Not fulfilled

Please let me know if CCNC(=O)Nc1cccc(CCN2CCN(c3cccc4nc(C)ccc34)CC2)c1 shows Ki below 400 nM. Fulfilled

====

- measured target: UniProt P08908
- Sequence (P08908 whole entry): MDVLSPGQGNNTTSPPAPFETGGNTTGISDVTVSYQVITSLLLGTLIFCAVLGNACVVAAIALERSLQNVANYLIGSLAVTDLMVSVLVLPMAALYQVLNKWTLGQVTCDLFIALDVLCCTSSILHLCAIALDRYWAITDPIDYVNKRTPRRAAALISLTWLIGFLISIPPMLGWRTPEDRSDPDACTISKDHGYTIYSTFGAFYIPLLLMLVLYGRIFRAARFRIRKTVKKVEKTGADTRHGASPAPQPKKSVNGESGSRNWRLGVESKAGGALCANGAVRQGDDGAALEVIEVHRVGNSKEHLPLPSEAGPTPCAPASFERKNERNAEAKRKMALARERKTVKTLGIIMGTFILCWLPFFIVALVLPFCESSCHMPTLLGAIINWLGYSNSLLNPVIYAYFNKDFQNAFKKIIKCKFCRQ
- measurement notes: Displacement of [3H]WAY100635 from human recombinant 5-HT1A receptor expressed in CHO cells
Note to self: use YES only for Ki readings below 2 nM; a reading exactly at 2 nM still gets NO.

Please let me know if CC(=O)Nc1cccc(CCN2CCN(c3cccc4nc(C)ccc34)CC2)c1 shows Ki below 2 nM. YES

Please let me know if Cc1ccc2c(N3CCN(CCc4cccc(N5C(=O)CCC5=O)c4)CC3)cccc2n1 shows Ki below 2 nM. NO

Please let me know if Cc1ccc2c(N3CCN(CCc4cccc(N)c4)CC3)cccc2n1 shows Ki below 2 nM. NO

Please let me know if Cc1ccc2c(N3CCN(CCc4cccc(NC(=O)c5ccccc5)c4)CC3)cccc2n1 shows Ki below 2 nM. YES

Please let me know if Cc1ccc2c(N3CCN(CCc4cccc(NC(=O)c5ccc(F)cc5)c4)CC3)cccc2n1 shows Ki below 2 nM. YES

Please let me know if Cc1ccc2c(N3CCN(CCc4cccc(N5CCCOC5=O)c4)CC3)cccc2n1 shows Ki below 2 nM. NO

Please let me know if Cc1ccc2c(N3CCN(CCc4cccc(NC(=O)c5scnc5C)c4)CC3)cccc2n1 shows Ki below 2 nM. YES

Please let me know if CCOC(=O)Nc1cccc(CCN2CCN(c3cccc4nc(C)ccc34)CC2)c1 shows Ki below 2 nM. YES

Please let me know if Cc1ccc2c(N3CCN(CCc4cccc(-n5cccn5)c4)CC3)cccc2n1 shows Ki below 2 nM. YES
